# SYSTEM TESTED: cGMP-inhibited 3',5'-cyclic phosphodiesterase 3A (Homo sapiens, UniProt Q14432)
# Sequence (Q14432 whole entry): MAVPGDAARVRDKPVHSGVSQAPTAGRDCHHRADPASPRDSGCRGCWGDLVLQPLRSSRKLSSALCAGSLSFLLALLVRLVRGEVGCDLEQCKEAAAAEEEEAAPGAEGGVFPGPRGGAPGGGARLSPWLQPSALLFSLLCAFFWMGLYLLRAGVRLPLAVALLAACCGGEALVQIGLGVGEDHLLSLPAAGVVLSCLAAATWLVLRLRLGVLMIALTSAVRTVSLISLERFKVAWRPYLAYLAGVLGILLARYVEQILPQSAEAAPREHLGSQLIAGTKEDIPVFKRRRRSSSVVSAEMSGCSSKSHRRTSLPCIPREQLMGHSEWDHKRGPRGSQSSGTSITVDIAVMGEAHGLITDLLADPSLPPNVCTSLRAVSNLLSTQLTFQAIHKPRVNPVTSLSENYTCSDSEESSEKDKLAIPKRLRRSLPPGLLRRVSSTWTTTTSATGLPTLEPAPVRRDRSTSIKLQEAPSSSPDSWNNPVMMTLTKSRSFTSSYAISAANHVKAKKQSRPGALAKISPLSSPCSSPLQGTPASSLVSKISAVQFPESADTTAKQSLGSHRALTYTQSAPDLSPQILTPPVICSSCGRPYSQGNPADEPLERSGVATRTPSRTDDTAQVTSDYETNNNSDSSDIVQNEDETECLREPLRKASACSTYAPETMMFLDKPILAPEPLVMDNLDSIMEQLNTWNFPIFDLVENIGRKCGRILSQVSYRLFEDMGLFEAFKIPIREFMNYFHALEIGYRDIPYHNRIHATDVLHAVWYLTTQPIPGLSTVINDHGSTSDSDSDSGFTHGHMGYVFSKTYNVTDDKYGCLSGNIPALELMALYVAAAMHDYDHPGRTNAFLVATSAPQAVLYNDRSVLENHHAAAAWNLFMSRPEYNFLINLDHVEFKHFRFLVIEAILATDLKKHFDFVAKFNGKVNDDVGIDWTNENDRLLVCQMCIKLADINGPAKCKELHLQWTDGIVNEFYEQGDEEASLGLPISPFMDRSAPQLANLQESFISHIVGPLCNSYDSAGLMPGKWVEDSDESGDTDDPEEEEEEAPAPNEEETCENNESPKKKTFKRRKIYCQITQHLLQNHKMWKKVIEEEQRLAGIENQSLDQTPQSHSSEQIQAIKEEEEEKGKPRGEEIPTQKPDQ
REPORTED ENDPOINT: pIC50
Keep it numeric: pIC50 is minus log10 of the concentration in mol/L.

Measured pIC50 of CCSc1ncc(-c2cc(-c3ccc(Br)cc3)[nH]c(=N)c2C#N)n1Cc1ccccc1 : 8.42

* * *

# TEST METHOD NOTES: Cytotoxicity against human MCF7 cells measured after 24 hrs by MTT assay
# Format: functional, cell-based
# SETTINGS: MCF7, 24 h
REPORTED ENDPOINT: IC50
Please format your answer as a value with the unit trailing.

Measured IC50 of CCSc1ncc(-c2cc(-c3ccc(Br)cc3)[nH]c(=N)c2C#N)n1Cc1ccccc1 : 50.2 µM

* * *

# TEST METHOD NOTES: Cytotoxicity against human A549 cells by sulforhodamine-B assay
# Assay type: functional, cell-based
REPORTED ENDPOINT: IC50 (µM)
Response body: numeric value in µM, unit text excluded.

Measured IC50 of Cc1onc(-c2ccc([N+](=O)[O-])cc2)c1C(=O)/C=C/c1ccccc1Br : 11.1

* * *

# TEST METHOD NOTES: Cytotoxicity against human PC3 cells by MTT assay
# Type: functional, cell-based
# SETTINGS: PC-3
REPORTED ENDPOINT: IC50

| MOL SMILES | IC50 |
| --- | --- |
| Clc1ccc(C2=NO[C@@]3(CCCCO3)[C@H]2Br)cc1 | 43 to 56 µM |

Now for another entry.
Measured IC50 of Clc1cccc(Cl)c1C1=NO[C@@]2(CCCCO2)[C@H]1Br : 43 to 56 µM
